test: optical density change of DRC41 E. coli – strain DRC41, OD650, 24 h, E. coli filamentation project, primary screen (AID 1093);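 further: MC1000 strain lacking acrAB efflux and sulA so SOS filamentation is blocked; test concentration not given here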; conditions: E. coli DRC41 growth, higher = more signal, called active from +8 up or from −8 down
Classify on z-score using I: < -0.2; II: ≥ -0.2 and < 0.3; III: ≥ 0.3

Examples with answers:
molecule | label-value
CCCC[C@@H](O)C1=C(COc2ccccc2)Cn2c(=O)n(-c3ccccc3)c(=O)n2[C@H]1CO | III
O=C1OCC=C[C@H]2OC34C=CCN(CCN5CCOCC5)C(=O)[C@H]3N(CCCCCO)C(=O)[C@@H]4[C@@H]12 (stereo not given in full) | II
CC(C)NC(=O)[C@@H]1c2ccccc2C(=O)N(Cc2cc(C(F)(F)F)cc(C(F)(F)F)c2)[C@H]1c1ccc(CO)cc1 | I

Which category fits this record: Cc1ccc(-c2cccc(=O)o2)cc1
II

Which category fits this record: COc1ccc([Si](C)(C)[C@@H]2[C@@H](CCO)O[C@]3(C(=O)N(Cc4ccc(N5C(=O)c6ccccc6Oc6ccccc65)cc4)c4ccccc43)[C@H]2C)cc1
II

Which category fits this record: CC1CC/C=C\[C@H]2OC34C=CCN(c5ccc(Cl)cc5)C(=O)[C@H]3N(C(CO)C(C)C)C(=O)[C@]4(C)C2C(=O)O1 (stereo not given in full)
I

====

Assignment: determine reported composite z-score for the given compounds.
assay: probe aDKK1 binding to arrayed compounds – biochemical, biotinylated probe, 635/667 nm fluorescence, primary screen (AID 1099); conditions: small-molecule microarray, higher = more signal;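 further: score merges 667nm spot fluorescence with signal to noise across triplicate slides; reference of the scale not given here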
One number for each entry.

compound | assay-result
[N-]=[N+]=Nc1ccccc1C[C@]1(C(=O)NCCN2CCOCC2)N=C(c2ccc(OCCCO)cc2)O[C@H]1c1ccccc1N=[N+]=[N-] | 0.63
COC(=O)[C@@]1(Cc2ccc(F)cc2)[C@@H]2[C@@H](CC(=O)[C@H]2CC(=O)C(=O)N2CCCC2)CN1C(=O)c1ccccc1 | 0.942
COc1ccc([Si](C)(C)[C@@H]2[C@@H](CCO)O[C@]3(C(=O)N(Cc4ccc(N5C(=O)c6ccccc6Oc6ccccc65)cc4)c4ccccc43)[C@H]2C)cc1 | -0.0754
COC(=O)[C@@]1(Cc2ccccc2)[C@H]2c3cc(C(=O)N4CCCC4)n(CCO)c3C[C@H]2CN1C(=O)c1ccccc1 | 2.22

For the next question, use this compound.
State its composite z-score for this compound: C[C@]12C(=O)N(CCCO)[C@@H]3C(=O)N(c4ccc(Cl)cc4)CC=CC31O[C@@H]1/C=C\CCCOC(=O)C12 (stereo not given in full)
-0.275

====

assay: budding yeast growth modifiers under rapamycin – strain BY4716, OD600, 96 h, primary screen (AID 1091); further: test concentration not given here; details: S. cerevisiae BY4716 + rapamycin, higher = more signal, called active from +8 up or from −8 down
Classify on z-score using c1 = under 0.05, c2 = from 0.05 up to 3, c3 = 3 and over

Examples with answers:
molecule | label-value
COC(=O)C(CC#Cc1ccc2c(c1)[C@]1(C(=O)N2)[C@H](C(=O)N2CCc3cc(OC)c(OC)cc3C2)[C@H]2C(=O)O[C@H](c3ccccc3)[C@H](c3ccccc3)N2[C@@H]1c1ccc(O)cc1)C(=O)OC | c2
C=C(C)[C@@H]1CC=C(C(O)C2C=CC3C(=O)N(C4CCCCC4)C(=O)C3N2Nc2ccc(OC)cc2)CC1 (some centres undefined) | c2
CCCN1C(=O)[C@@H]2Cc3c([nH]c4ccccc34)[C@@H](c3cccc(O)c3)N2C1=O | c2

Next up:
Which category fits this record: COC(=O)C(CC#Cc1ccc2c(c1)[C@]1(C(=O)N2)[C@H](c2ccc(OCCO)cc2)N2[C@H](c3ccccc3)[C@H](c3ccccc3)OC(=O)[C@H]2[C@@H]1C(=O)O)C(=O)OC
c1
